- targetOfAssay: GSPT1 (Homo sapiens, UniProt P15170+Q96SW2)
- Sequence (P15170 whole entry): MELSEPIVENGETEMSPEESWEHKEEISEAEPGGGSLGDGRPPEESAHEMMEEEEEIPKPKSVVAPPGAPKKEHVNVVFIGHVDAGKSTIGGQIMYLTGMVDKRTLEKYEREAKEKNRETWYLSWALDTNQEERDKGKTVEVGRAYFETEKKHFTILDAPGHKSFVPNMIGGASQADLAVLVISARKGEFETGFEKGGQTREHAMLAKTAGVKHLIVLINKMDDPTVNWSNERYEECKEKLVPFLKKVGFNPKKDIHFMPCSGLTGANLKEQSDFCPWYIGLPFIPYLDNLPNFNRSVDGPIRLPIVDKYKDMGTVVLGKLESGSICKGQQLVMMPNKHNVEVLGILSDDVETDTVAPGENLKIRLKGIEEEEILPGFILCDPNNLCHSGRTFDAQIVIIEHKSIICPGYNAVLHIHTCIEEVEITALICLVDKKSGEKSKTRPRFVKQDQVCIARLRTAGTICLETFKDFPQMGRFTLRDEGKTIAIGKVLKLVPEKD
- Sequence (Q96SW2 whole entry): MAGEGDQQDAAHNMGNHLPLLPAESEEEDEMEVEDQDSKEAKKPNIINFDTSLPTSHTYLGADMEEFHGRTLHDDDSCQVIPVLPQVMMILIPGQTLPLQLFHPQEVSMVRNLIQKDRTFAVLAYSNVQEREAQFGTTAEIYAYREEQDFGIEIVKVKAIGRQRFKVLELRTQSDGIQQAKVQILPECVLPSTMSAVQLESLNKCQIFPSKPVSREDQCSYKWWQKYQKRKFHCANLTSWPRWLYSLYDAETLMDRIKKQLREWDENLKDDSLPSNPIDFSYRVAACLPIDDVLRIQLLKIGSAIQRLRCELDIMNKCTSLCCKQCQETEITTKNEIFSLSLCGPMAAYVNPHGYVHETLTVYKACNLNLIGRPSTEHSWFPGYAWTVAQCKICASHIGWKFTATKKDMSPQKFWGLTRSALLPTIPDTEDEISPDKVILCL
- Sequence (Q16531 whole entry partner): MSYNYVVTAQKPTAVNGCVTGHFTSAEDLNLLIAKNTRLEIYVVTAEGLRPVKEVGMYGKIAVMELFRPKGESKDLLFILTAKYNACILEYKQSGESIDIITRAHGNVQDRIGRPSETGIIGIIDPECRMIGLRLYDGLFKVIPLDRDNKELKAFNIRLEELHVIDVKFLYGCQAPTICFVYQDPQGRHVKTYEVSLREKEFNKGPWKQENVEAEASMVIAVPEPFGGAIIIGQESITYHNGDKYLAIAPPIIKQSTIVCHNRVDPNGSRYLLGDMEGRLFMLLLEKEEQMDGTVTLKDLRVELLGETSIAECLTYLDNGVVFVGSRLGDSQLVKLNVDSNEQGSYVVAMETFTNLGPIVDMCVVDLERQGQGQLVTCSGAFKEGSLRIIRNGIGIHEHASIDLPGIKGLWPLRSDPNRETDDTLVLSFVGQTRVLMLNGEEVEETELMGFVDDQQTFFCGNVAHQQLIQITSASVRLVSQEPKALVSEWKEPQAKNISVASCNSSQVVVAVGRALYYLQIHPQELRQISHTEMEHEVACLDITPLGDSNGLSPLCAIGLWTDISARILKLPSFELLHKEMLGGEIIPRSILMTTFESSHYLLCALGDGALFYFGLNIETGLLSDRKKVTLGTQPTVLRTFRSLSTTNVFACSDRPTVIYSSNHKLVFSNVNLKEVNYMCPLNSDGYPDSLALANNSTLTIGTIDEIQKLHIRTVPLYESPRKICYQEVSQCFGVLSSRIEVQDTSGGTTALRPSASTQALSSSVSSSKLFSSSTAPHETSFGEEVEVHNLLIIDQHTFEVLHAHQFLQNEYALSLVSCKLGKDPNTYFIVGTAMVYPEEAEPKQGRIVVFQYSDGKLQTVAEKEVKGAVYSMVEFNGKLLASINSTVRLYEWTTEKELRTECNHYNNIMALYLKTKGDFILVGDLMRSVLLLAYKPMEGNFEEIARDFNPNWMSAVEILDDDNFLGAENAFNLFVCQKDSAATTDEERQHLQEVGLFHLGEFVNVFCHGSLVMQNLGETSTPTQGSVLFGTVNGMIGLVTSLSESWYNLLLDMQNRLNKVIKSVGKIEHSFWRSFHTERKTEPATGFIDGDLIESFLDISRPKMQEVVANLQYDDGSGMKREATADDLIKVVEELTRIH
- protocolDetails: Flow cytometry for measuring degradation, HEK293T GFP-POI reporter cells (GSPT1)
- Format: cell-based
- Set-up: expressed in transfected cells; host or cells: HEK293T
- measurementContext: HEK-293T; Table 3
Listed next: entries and their corresponding Dmax.
reportedProperty: Dmax (%)

[[record]]
compound = "C[C@H](NC(=O)c1ccccc1)C(=O)Nc1ccc2c(c1)CN(C1CCC(=O)NC1=O)C2=O (some centres unmarked)"
valueobserved = 0

[[record]]
compound = "CSc1ccc2cc(C(=O)Nc3ccc4c(c3)CN(C3CCC(=O)NC3=O)C4=O)ccc2c1 (centres unmarked)"
valueobserved = 33.5

[[record]]
compound = "COCOc1ccc2cc(C(=O)Nc3ccc4c(c3)CN(C3CCC(=O)NC3=O)C4=O)ccc2c1 (centres unmarked)"
valueobserved = 12.8

[[record]]
compound = "CN1C(=O)CCc2cc(C(=O)Nc3ccc4c(c3)CN(C3CCC(=O)NC3=O)C4=O)ccc21 (centres unmarked)"
valueobserved = 5.6

[[record]]
compound = "N#Cc1ccc2cc(C(=O)Nc3ccc4c(c3)CN(C3CCC(=O)NC3=O)C4=O)ccc2c1 (centres unmarked)"
valueobserved = 14.8

[[record]]
compound = "CC(=O)N1CCC[C@H]1C(=O)Nc1ccc2c(c1)CN(C1CCC(=O)NC1=O)C2=O (some centres unmarked)"
valueobserved = 14.2

[[record]]
compound = "CS(=O)(=O)c1ccc2cc(C(=O)Nc3ccc4c(c3)CN(C3CCC(=O)NC3=O)C4=O)ccc2c1 (centres unmarked)"
valueobserved = 14.6

[[record]]
compound = "CN1C(=O)COc2cc(C(=O)Nc3ccc4c(c3)CN(C3CCC(=O)NC3=O)C4=O)ccc21 (centres unmarked)"
valueobserved = 13.7

